# procedureText: Mass balance studies after skin permeation of MTG gels
# Assay type: in vitro ADME, porcine
# assaySetup: pig, 1% MTG gel with Transcutol and BHT; read-out: Total percentage (mass balance recovery)
observationType: recovery at 48 h, 1 % (%)
The answer is to be given in %; state only the numeric part.

Just so you know, measured recovery at 48 h, 1 % for `CC[C@@H]1CN2CCc3c([nH]c4cccc(OC)c34)[C@@H]2C[C@@H]1/C(=C\OC)C(=O)OC` came out at 87.7

----------
# procedureText: In vitro skin permeation of 5%w/v MTG in single solvents (Franz diffusion cells), with infinite dose model fitting
# Type: in vitro ADME, porcine
# assaySetup: pig, 5%w/v MTG in DMSO; receptor PBS without ascorbic acid; 48 h; read-out: Kp (permeability coefficient) (converted)
# Protocol: The in vitro permeation study was performed in triplicate using Franz diffusion cell apparatus with a diffusion area of ~ 0.8 cm^2 and a receptor volume of ~ 3 mL. […] Samples were analysed using Shimadzu liquid chromatographic system (Kyoto, Japan) with SPD-20A UV–vis detector set at 254 nm. […] The permeability coefficient (Kp), steady-state flux (Jss) and lag time (tlag) can then be calculated using Eqs. […]
observationType: Papp at 48 h, 5 %w/v (×10⁻⁶ cm/s)
Quick reminder: number only, in ×10⁻⁶ cm/s, skip the unit.

GET /value?item= `CC[C@@H]1CN2CCc3c([nH]c4cccc(OC)c34)[C@@H]2C[C@@H]1/C(=C\OC)C(=O)OC` &field=Papp at 48 h, 5 %w/v returns 0.00291

----------
# procedureText: Mass balance studies after 48-h skin permeation of MTG in solvents
# Type: in vitro ADME, porcine
# assaySetup: pig, Mitragynine recovery in mass balance studies, 5%w/v in single solvent systems
# Description: The in vitro permeation study was performed in triplicate using Franz diffusion cell apparatus with a diffusion area of ~ 0.8 cm^2 and a receptor volume of ~ 3 mL. […] Subsequently, the surface of the skin was washed twice with 500 μL of methanol before adding to the same Eppendorf tube containing the cotton buds. […] All samples were vortexed and analysed using HPLC (Sect. HPLC analysis). […]
observationType: recovery at 48 h, 5 %w/v

Quick note, recovery at 48 h, 5 %w/v for `CC[C@@H]1CN2CCc3c([nH]c4cccc(OC)c34)[C@@H]2C[C@@H]1/C(=C\OC)C(=O)OC` landed at < 80%

----------
# procedureText: In vitro skin permeation of 5%w/v MTG in single solvents (Franz diffusion cells), with infinite dose model fitting
# Format: in vitro ADME, porcine
# assaySetup: pig, 5%w/v MTG in Transcutol; receptor PBS without ascorbic acid; 48 h; read-out: Kp (permeability coefficient) (converted)
# Description: The in vitro permeation study was performed in triplicate using Franz diffusion cell apparatus with a diffusion area of ~ 0.8 cm^2 and a receptor volume of ~ 3 mL. […] Samples were analysed using Shimadzu liquid chromatographic system (Kyoto, Japan) with SPD-20A UV–vis detector set at 254 nm. […] The permeability coefficient (Kp), steady-state flux (Jss) and lag time (tlag) can then be calculated using Eqs. […]
observationType: Papp at 48 h, 5 %w/v (×10⁻⁶ cm/s)
Just the number in ×10⁻⁶ cm/s, nothing appended.

For reference, reported Papp at 48 h, 5 %w/v for `CC[C@@H]1CN2CCc3c([nH]c4cccc(OC)c34)[C@@H]2C[C@@H]1/C(=C\OC)C(=O)OC` stands at 0.00247

Ref: paper PMC12507957
